Below, each of the compounds is paired with its reported GI50 value.
- Tested on: U266
- Measurement notes: Cell proliferation assay, U266 (MM)
- Assay type: cell-based
- Study conditions: Homo sapiens, U-266, Table 5 comparison

Compound	GI50
COc1cc2nc(N3CCCN(C)CC3)nc(NC3CCN(Cc4ccccc4)CC3)c2cc1OC	≥ 10 µM
COc1cc2c(NC3CCN(C)CC3)cc(-c3ccc(C)o3)nc2cc1OCCCN1CCCC1.O=C(O)C(F)(F)F	1 to 10 µM
COc1cc2c(NC3CCN(C(C)C)CC3)nc(C3CCCCC3)nc2cc1OCCCN1CCCC1 [UNC0638, reference compound]	≥ 10 µM
Nc1ncn([C@@H]2O[C@H](CO)[C@@H](O)[C@H]2O)c(=O)n1 [5-azacytidine, reference compound]	1 to 10 µM
COc1cc2c(NCC3CCN(C)CC3)cc(-c3ccc(C)o3)nc2cc1OCCCN1CCCC1	1 to 10 µM

* * *

- Target entity: human G9a enzyme (Homo sapiens)
- Sequence (Q96KQ7 whole entry): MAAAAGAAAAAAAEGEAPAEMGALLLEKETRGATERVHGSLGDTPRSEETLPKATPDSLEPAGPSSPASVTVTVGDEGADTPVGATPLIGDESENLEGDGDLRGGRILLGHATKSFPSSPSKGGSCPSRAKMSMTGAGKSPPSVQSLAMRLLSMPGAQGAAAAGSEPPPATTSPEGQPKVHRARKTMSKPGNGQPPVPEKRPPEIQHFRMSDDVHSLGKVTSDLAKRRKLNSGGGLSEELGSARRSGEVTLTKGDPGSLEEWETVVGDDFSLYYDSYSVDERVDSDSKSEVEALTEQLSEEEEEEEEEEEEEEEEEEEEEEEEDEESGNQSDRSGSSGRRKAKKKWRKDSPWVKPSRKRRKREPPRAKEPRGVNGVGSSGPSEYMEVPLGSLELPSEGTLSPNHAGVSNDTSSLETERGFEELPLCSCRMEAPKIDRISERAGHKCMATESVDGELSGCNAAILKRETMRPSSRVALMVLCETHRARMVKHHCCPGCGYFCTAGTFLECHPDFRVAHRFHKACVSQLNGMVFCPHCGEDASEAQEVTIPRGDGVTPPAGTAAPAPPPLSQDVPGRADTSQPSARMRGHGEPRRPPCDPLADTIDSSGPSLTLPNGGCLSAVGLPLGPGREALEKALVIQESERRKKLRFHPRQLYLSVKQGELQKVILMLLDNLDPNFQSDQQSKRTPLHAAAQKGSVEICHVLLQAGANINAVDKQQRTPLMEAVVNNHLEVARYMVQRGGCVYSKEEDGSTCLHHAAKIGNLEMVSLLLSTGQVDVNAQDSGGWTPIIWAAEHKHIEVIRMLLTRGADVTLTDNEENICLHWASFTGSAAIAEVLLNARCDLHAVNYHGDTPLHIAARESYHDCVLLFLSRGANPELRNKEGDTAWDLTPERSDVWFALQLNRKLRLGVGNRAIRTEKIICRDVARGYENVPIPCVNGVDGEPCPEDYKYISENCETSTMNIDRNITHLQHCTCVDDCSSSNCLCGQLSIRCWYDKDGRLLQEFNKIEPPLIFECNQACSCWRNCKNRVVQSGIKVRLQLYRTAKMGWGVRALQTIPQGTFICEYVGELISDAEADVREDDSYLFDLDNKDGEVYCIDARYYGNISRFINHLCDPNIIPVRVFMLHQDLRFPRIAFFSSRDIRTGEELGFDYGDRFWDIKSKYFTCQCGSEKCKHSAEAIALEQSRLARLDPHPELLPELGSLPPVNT
Where a name gives a salt, the structure may show the parent alone.

Compound	IC50
COc1cc2c(NC3CCCC3)cc(-c3ccc(C)[nH]3)nc2cc1OCCCN1CCCC1 [Compound 3-38]	< 100 nM
CCc1ccc(-c2cc(NC3C4CCC3CN(C)C4)c3cc(OC)c(OCCCN4CCCC4)cc3n2)o1 (stereo not drawn) [Compound 3-51]	< 100 nM
COc1cc2c(NC3CC4(CCNCC4)C3)cc(-c3ccc(C)[nH]3)nc2cc1OCCCN1CCCC1 [Compound 4-02, hydrochloride]	< 100 nM
COc1cc2c(NCC3CCN(C)CC3)cc(-c3ccc(C)[nH]3)nc2cc1OCC1CCNCC1 [Compound 11-06]	100 to 500 nM
COc1cc2c(NC3CC3)cc(-c3ccc(C)[nH]3)nc2cc1OCC1CCNCC1 [Compound 11-08]	1000 to 10000 nM
COc1cc2c(NC3CCN(C)CC3)cc(C3=CCOCC3)nc2cc1OCCCN1CCCC1 [Compound 6-02]	< 100 nM
COc1cc2c(NC3CC4(CCNCC4)C3)cc(-c3ccc(C)[nH]3)nc2cc1OCC1CCNCC1 [Compound 11-09]	100 to 500 nM
COc1cc2c(NC3CCN(C)CC3)cc(C3CCOCC3)nc2cc1OCCCN1CCCC1 [Compound 7-02]	< 100 nM
COc1cc2c(NC3CCCC3)cc(C)nc2cc1OCCCN1CCCC1 [Compound 3-24]	< 100 nM

Data origin, for the record: patent US9840500B2
